Test system: OKP-GS (renal cell carcinoma)
assay_protocol: MTT cell proliferation assay, OKP-GS
Assay type: cell-based
details: 72 h of exposition, read-out: Anti-proliferative activity IC50, OKP-GS
IC50 values, listed per item

Cc1cn(-c2cc(NC(=O)c3ccc(C(=O)N4CCN(C(=O)c5cccc(F)c5)CC4)cc3)cc(C(F)(F)F)c2)cn1 [Compound 27]
> 50 µM
Cc1cn(-c2cc(NC(=O)c3cccc(C(=O)N4CCN(C(=O)c5ccccc5F)CC4)c3)cc(C(F)(F)F)c2)cn1 [Compound 14]
> 50 µM
O=C(Nc1cccc(C(F)(F)F)c1)c1ccc(C(=O)N2CCN(C(=O)c3cccc(F)c3)CC2)cc1 [Compound 21]
> 50 µM

Here is the next item to consider.
Query: Given the molecule CNC(=O)c1cc(Oc2ccc(NC(=O)Nc3ccc(Cl)c(C(F)(F)F)c3)cc2)ccn1 [Sorafenib, reference compound] , what is its reported IC50?
Reply: 7.17 µM

// provenance: paper PMC10046946
